system: ACHN renal; experiment: NCI-60 one-dose screen, 48 h (100 = growth as untreated, 0 = no growth, -100 = all killed); details: 10 µM unless noted
The panel holds about 83,000 compounds, 20% with a hit somewhere; the sample as a whole holds those more often.
Each entry gets not fulfilled if its growth stays under 70%, and fulfilled if its growth is 70% or above.

| molecule | category |
| --- | --- |
| CCCNC(=O)c1cn2ncnc(Nc3cc(C(=O)NC4CC4)ccc3C)c2c1C | not fulfilled |
| Cc1ccccc1Nc1nc2nonc2nc1Nc1cccc(C)c1C | not fulfilled |
| COc1cc2c(Nc3ccc(Br)cc3F)ncnc2cc1OCC1CCN(C)CC1 | not fulfilled |
| CC(C)(C)OC(=O)N1CCC(O)[C@@H](O[Si](c2ccccc2)(c2ccccc2)C(C)(C)C)[C@H]1/C=C/c1ccccc1 (stereo not given in full) | not fulfilled |
| C=C1C[C@H](O)[C@H](Br)C(C)(C)[C@@]12CCC(C)=C(Cl)C2 | not fulfilled |
| O=C(Cn1cncn1)Nc1ccc(-c2nc3ccccc3s2)cc1 | fulfilled |
| COc1cc2cc(NCc3ccc(F)cc3)nc(C)c2cc1OC | not fulfilled |
| COc1ccc(C2CC(=O)c3c(O)c(OC)c(OC)c(OC)c3O2)cc1O (stereo not given) | not fulfilled |
| COC(=O)Nc1nc2ccc(C(=O)c3ccc(N(C)C4COC4)cc3)cc2[nH]1 | not fulfilled |
| COc1cc(C2CC(c3ccc(Cl)cc3)=NN2c2ccc(Cl)cc2)cc(OC)c1OC (stereo not given) | fulfilled |
| CNC(=O)c1cc(Oc2cccc3nc(Nc4ccc(Oc5ccccc5)cc4)ccc23)ccn1 | fulfilled |
| Nc1c2c(c(O)c3c1=C(CO)C=N3)=NCCS2 | not fulfilled |
| Cc1cc(N2CCOCC2)nc(N(CCNc2ccnc3cc(Cl)ccc23)Cc2cccs2)n1 | not fulfilled |
| O=C(CNc1nnc(-c2ccc(Cl)cc2)o1)Nc1ccc(-c2nc3ccccc3s2)cc1 | fulfilled |
| O=C1CC(c2cccc(F)c2)c2c(n[nH]c2-c2ccc(Cl)cc2)N1 (stereo not given) | fulfilled |
| COc1cc(Nc2ncc(F)c(Nc3ccc4c(n3)NC(=O)C(C)(C)O4)n2)cc(OC)c1OC | not fulfilled |
| Cn1c(Nc2ccc(C(F)(F)F)cc2)nc2cc(Oc3ccnc(-c4ncc(C(F)(F)F)[nH]4)c3)ccc21 | not fulfilled |
| CC[C@@H]1C(=O)N(C)c2cnc(Nc3ccc(C(=O)NC4CCN(C)CC4)cc3OC)nc2N1C1CCCC1 | not fulfilled |

====

tested on: NCI-H23 lung; experiment: NCI-60 one-dose screen, 48 h (100 = growth as untreated, 0 = no growth, -100 = all killed); details: 10 µM unless noted
The panel holds about 83,000 compounds, 20% with a hit somewhere; the sample as a whole holds those more often.
Labelling field: enter met if recorded growth is less than 20%. Enter not met if it equals or exceeds that cut-off.

| compound | category |
| --- | --- |
| COc1ccc(CCCc2c3[n+](cc4c(OC)c(OC)ccc24)CCc2cc4c(cc2-3)OCO4)cc1 | not met |
| O=C(Nc1nc2cccc(-c3ccc(CN4CCS(=O)(=O)CC4)cc3)n2n1)C1CC1 | not met |
| N#CC1(C#N)C(c2cccs2)NC(c2cccs2)C1(C#N)C#N (stereo not given) | not met |
| CN1CCN(c2ccc(C(=O)Nc3n[nH]c4ccc(Cc5cc(F)cc(F)c5)cc34)c(NC3CCOCC3)c2)CC1 | met |
| O=C(O)c1ccc2c(c1)nc(Nc1cccc(Cl)c1)c1ccncc12 | met |
| CC/C=C\C[C@H]1C/C=C2/C(=O)C=C[C@@H]2C/C=C\CCCC(=O)O1 | met |
| Nc1nc(Nc2ccccc2)c(C=Nc2ccccc2)c(=O)[nH]1 | not met |
| C#Cc1cccc(Nc2ncnc3cc(OC)c(OCCCCCCC(=O)NO)cc23)c1 | met |
| COc1ccc(Br)cc1NC(=O)Nc1cccc2c1ccn2Cc1ccnc(N)c1 | not met |
| O=C(NOCCO)c1ccc2cncn2c1Nc1ccc(I)cc1F | met |

From: PubChem BioAssay (NCI)
